Test system: PA-1
ASSAY: Primary qHTS to identify gynecologic anti-cancer compounds using libraries of approved drugs and bioactive compounds (AID 1345084); note: nearly all actives have a fitted effect of over 55% in size
EXPERIMENTAL_PARAMETERS: Gynecologic cancer cell panel viability, ATPlite luminescence, 48 h; series mostly up to 57.5 µM
Inconclusive results are not listed. Calls of active or inactive are those of the source. Calls come from the whole dose curve; as a rule, active = well fitted cell-killing curve with a large enough effect; inconclusive = small, poorly fitted or top-dose-only effect, or effect the other way; inactive = flat fitted curve, though single readings scatter.
Possible outcomes: label 1 (active), label 0 (inactive)

COMPOUND: Cc1cccc(NC(=O)NC2N=C(c3ccccc3)c3ccccc3N(CC(=O)c3ccccc3C)C2=O)c1 (configuration not stated)
CLASSIFICATION: label 0
--
COMPOUND: O=C1CN=C(c2ccccc2Cl)c2cc(Br)ccc2N1
CLASSIFICATION: label 0
--
COMPOUND: O=C(C[C@@H]1NCCC[C@H]1O)Cn1cnc2ccccc2c1=O
CLASSIFICATION: label 1
--
COMPOUND: COc1ccc(C(C)(C)C)cc1CN[C@H]1C2CCN(CC2)[C@H]1C(c1ccccc1)c1ccccc1
CLASSIFICATION: label 0
--
COMPOUND: Cc1c(N[C@@H](c2nnc(-c3ccc(C#N)cc3)o2)[C@H](C)O)ccc(C#N)c1Cl
CLASSIFICATION: label 0
--
COMPOUND: O=C(NCCN1CCC2(CC1)C(=O)NCN2c1cccc(F)c1)c1ccc2ccccc2c1
CLASSIFICATION: label 0
--
COMPOUND: COC1CC(O[C@H]2CC[C@]3(C=O)C4CC[C@]5(C)[C@@H](C6=CC(=O)OC6)CC[C@]5(O)[C@@H]4CC[C@@H]3C2)OC(C)C1O[C@@H]1O[C@H](CO)[C@@H](O[C@@H]2O[C@H](CO)[C@@H](O)[C@H](O)[C@H]2O)[C@H](O)[C@H]1O (some centres not stated)
CLASSIFICATION: label 1
--
COMPOUND: C[C@@H]1O[C@@H](O[C@H]2CC[C@@]3(C)C(CC[C@@H]4C3CC[C@]3(C)[C@@H](C5=CC(=O)OC5)CC[C@]43O)C2)[C@H](O)[C@H](O)[C@H]1O (some centres not stated)
CLASSIFICATION: label 1
--
COMPOUND: CCC(C)/C=C(C)/C=C/C1=CC2=C(Cl)C(=O)C(C)(OC(C)=O)C(=O)C2=CO1 (configuration not stated)
CLASSIFICATION: label 0
--
COMPOUND: C[N@@+]1(CC2CC2)CC[C@]23c4c5ccc(O)c4O[C@H]2C(=O)CC[C@@]3(O)[C@H]1C5
CLASSIFICATION: label 0
--
COMPOUND: Cc1c(Cl)c(OCC(=O)N2CCN(C)CC2)nc2sc(C(=O)NC3CC3)c(N)c12
CLASSIFICATION: label 0
--
COMPOUND: CN1CN(c2ccccc2)C2(CCN(CCCC(=O)c3ccc(F)cc3)CC2)C1=O
CLASSIFICATION: label 0
--
COMPOUND: CC1=CC2OC3CC(O)[C@](C)([C@@]2(C)C(O)C1=O)[C@]31CO1 (some centres not stated)
CLASSIFICATION: label 1
--
COMPOUND: C[C@H]1C/C=C/[C@H]2[C@@H]3O[C@]3(C)[C@@H](C)[C@H]3[C@H](Cc4ccccc4)NC(=O)[C@]32OC(=O)O/C=C/[C@@](C)(O)C1=O
CLASSIFICATION: label 1
--
COMPOUND: NC(=O)c1ncn2c1CN=C(c1ccccc1Br)c1cc(F)ccc1-2
CLASSIFICATION: label 0
--
COMPOUND: CC(=O)NCCCOc1ccc(C(=O)N2CCC(N3C(=O)CCc4ccccc43)CC2)cc1
CLASSIFICATION: label 0
--
COMPOUND: C[C@@H](CN1CCC2(CC1)C(=O)NCN2c1cccc(F)c1)NC(=O)c1ccc(Br)cc1
CLASSIFICATION: label 0
